B1: AUP1 (parent)
chain: EGLLRFSSWPFSIQDVVQPLTLQV

# Variants of: B1
# method-description: protein stability index of a GFP-peptide fusion (GPS, HEK-293T) (PSI 1-6); higher = more stable;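 also: lentivirally expressed fusions sorted by FACS into six bins by GFP to DsRed ratio, PSI derived from sequencing read proportions per bin multiplied by bin number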
# test-parameters: c terminus: a fixed tail appended
protein stability index below 2 gives NOT MET; protein stability index at or above it gives MET.

mutation-key	discrete-label
P10T	MET
D15K	NOT MET
P10I	NOT MET
L20E	NOT MET
E1Y	MET
L4K	NOT MET
S7P	MET
P19W	NOT MET
V17C	MET
V16P	MET
V16D	NOT MET
V24F	MET
F6A	NOT MET
V24A	MET
W9L	MET
F11T	MET
L22E	MET
Q23K	NOT MET
W9E	NOT MET
W9T	NOT MET
W9A	MET
F6T	NOT MET
Q14Y	MET
T21S	MET
E1P	NOT MET
V24Q	NOT MET
D15M	MET
V24T	NOT MET
L20Q	MET
L20A	NOT MET
T21L	MET
V16L	NOT MET
Q23G	NOT MET
Q23L	MET
Q23M	MET
F11P	MET
V16C	MET
I13E	NOT MET
E1S	MET
S12H	MET
P10M	MET
P10V	MET
I13T	MET
Q23A	MET
Q18H	MET
